Exercise: for every item that follows, state its recorded viability.
- assay-comment: reversal of MRP1-mediated doxorubicin resistance, pilot screen, H69AR cells, doxorubicin co-treatment (AID 601)
- settings: H69AR cells + 2 uM doxorubicin, CellTiter-Glo, 72 h; measured here: viability with 2 uM doxorubicin; at 10 µM; stronger effect = lower value
I only need the number, in %, no unit after it.

Per the record, "CCOC(=O)N1CCN(S(=O)(=O)c2cc(C)c(C)cc2C)CC1" has viability of 89.3

// viability value for "Cc1cc(C)n(-c2nnc(C)n2/N=C/c2ccccc2F)n1" : 84.9

Per the record, "COc1ccc2c(C(F)(F)F)cc(=O)oc2c1C" has viability of 93.3

# molecule "COc1ccc(-n2c(COc3ccccc3)nnc2SCc2ccc(C#N)cc2)cc1" ; its viability = 54.1

Item: "COc1ccc(NS(=O)(=O)c2c(C)[nH]c(=O)[nH]c2=O)c(OC)c1" | viability: 89.5

So for Cc1nc2c(o1)CCc1ccccc1C2O (stereo unspecified) , the logged viability turned out to be 99.7

The measured viability associated with "c1ccc(OCCCn2nnc(-c3cccnc3)n2)cc1" reads 97.3

Reported viability ( "CCOC(=O)c1ccc(NC(=O)CSCc2ccco2)cc1" ) = 79.4

Field viability (entry CCOC(=O)C1=C(C)NC(C)=C(C(=O)OCC)C1C(=O)OC1CCOC1=O (stereo unspecified) ) reads 91.4

Entry CCC(NC(C)C)C(O)c1ccc(O)c(O)c1 (stereo unspecified) , viability reported as 91.5

Field viability (entry O=C(c1ccc(S(=O)(=O)N2CCOCC2)cc1)N(c1ccc(F)cc1)C1C=CS(=O)(=O)C1 (stereo unspecified) ) reads 92.4
